System: RAW264.7 macrophages
Assay: Cell viability of RAW264.7 macrophages (WST-1 reagent)
Assay type: cell-based, mouse
Settings: Mus musculus, RAW264.7, 24 h, cell viability, RAW264.7, 20 ng/ml IFNγ 24 hours, WST-1 reagent; read-out: RAW264.7 (20 ng/ml IFNγ) WST-1 IC50
pIC50: −log10 of the molar value. Where a name gives a salt, the structure may show the parent alone.
So I've got a bunch of molecules here, and I need their pIC50 values.

Reported pIC50 ( CC1(C)CC[C@]2(CNCC(F)(F)F)CC[C@]3(C)[C@H](C(=O)C[C@@H]4[C@@]5(C)C=C(C#N)C(=O)C(C)(C)[C@@H]5CC[C@]43C)[C@@H]2C1 [Compound 63273] ) = ~6.70

Reported pIC50 ( CC1(C)CC[C@]2(CNS(C)(=O)=O)CC[C@]3(C)[C@H](C(=O)CC4[C@@]5(C)C=C(C#N)C(=O)C(C)(C)C5CC[C@]43C)[C@@H]2C1 (stereo partly drawn) [Compound 63220] ) = < 6.70

Reported pIC50 ( CC1(C)CC[C@]2(CN)CC[C@]3(C)[C@H](C(=O)CC4[C@@]5(C)C=C(C#N)C(=O)C(C)(C)C5CC[C@]43C)[C@@H]2C1 (stereo partly drawn) [63214 salt, trifluoroacetic acid salt] ) = < 6.70

###

Tested on: RAW264.7 macrophages
Assay: Cell viability of RAW264.7 macrophages (WST-1 reagent)
Assay type: cell-based, mouse
Conditions: Mus musculus, RAW264.7, 24 h, cell viability, RAW264.7, 20 ng/ml IFNγ 24 hours, WST-1 reagent; read-out: RAW264.7 (20 ng/ml IFNγ) WST-1 IC50
pIC50: −log10 of the molar value.
recorded_metric: pIC50

Reported pIC50 ( CC1(C)CC[C@]2(CS(=O)(=O)c3ccccc3)CC[C@]3(C)[C@H](C(=O)C[C@@H]4[C@@]5(C)C=C(C#N)C(=O)C(C)(C)[C@@H]5CC[C@]43C)[C@@H]2C1 [Compound 63266] ) = < 6.70

Reported pIC50 ( COC[C@]12CCC(C)(C)C[C@H]1[C@H]1C(=O)C[C@@H]3[C@@]4(C)C=C(C#N)C(=O)C(C)(C)[C@@H]4CC[C@@]3(C)[C@]1(C)CC2 [Compound 63228] ) = 6.70

Reported pIC50 ( CC1(C)CC[C@]2([C@@H](O)CCl)CC[C@]3(C)[C@H](C(=O)C[C@@H]4[C@@]5(C)C=C(C#N)C(=O)C(C)(C)[C@@H]5CC[C@]43C)[C@@H]2C1 (single isomer, unassigned) [Compound 63282] ) = < 6.70

Reported pIC50 ( CC1(C)CC[C@]2(CN3C(=O)c4ccccc4C3=O)CC[C@]3(C)[C@H](C(=O)C[C@@H]4[C@@]5(C)C=C(C#N)C(=O)C(C)(C)[C@@H]5CC[C@]43C)[C@@H]2C1 [Compound 63276] ) = ~6.82

Reported pIC50 ( C#C[C@]12CCC(C)(C)C[C@H]1[C@H]1C(=O)C[C@@H]3[C@@]4(C)C=C(C#N)C(=O)C(C)(C)[C@@H]4CC[C@@]3(C)[C@]1(C)CC2 [Compound 63303] ) = ~6.82

Reported pIC50 ( CC1(C)CC[C@]2(CN)CC[C@]3(C)[C@H](C(=O)C[C@@H]4[C@@]5(C)C=C(C#N)C(=O)C(C)(C)[C@@H]5CC[C@]43C)[C@@H]2C1 [Compound 63214] ) = < 6.70

Reported pIC50 ( CC1(C)CC[C@]2(COC(=O)c3ccccc3)CC[C@]3(C)[C@H](C(=O)C[C@@H]4[C@@]5(C)C=C(C#N)C(=O)C(C)(C)[C@@H]5CC[C@]43C)[C@@H]2C1 [Compound 63298] ) = ~6.70

Reported pIC50 ( COC(=O)C[C@]12CCC(C)(C)C[C@H]1[C@H]1C(=O)C=C3[C@@]4(C)C=C(C#N)C(=O)C(C)(C)[C@@H]4CC[C@@]3(C)[C@]1(C)CC2 [Compound 402-50] ) = 7.12

Reported pIC50 ( CC1(C)CC[C@]2(CSc3ccccc3)CC[C@]3(C)[C@H](C(=O)C[C@@H]4[C@@]5(C)C=C(C#N)C(=O)C(C)(C)[C@@H]5CC[C@]43C)[C@@H]2C1 [Compound 63235] ) = ~6.82

Reported pIC50 ( CC1(C)CC[C@]2(CNC(=O)OC(C)(C)C)CC[C@]3(C)[C@H](C(=O)CC4[C@@]5(C)C=C(C#N)C(=O)C(C)(C)C5CC[C@]43C)[C@@H]2C1 (stereo partly shown) [Compound 63253] ) = ~6.70
